- Measurement notes: qHTS for Inhibitors of human tyrosyl-DNA phosphodiesterase 1 (TDP1): qHTS in cells in presence of CPT; further: nearly all actives have a fitted effect of over 55% in size
- Assay setup: chicken DT40 Tdp1-/-;hTDP1 cells + 20 nM CPT, ATP luminescence, 48 h; series mostly up to 46.2 µM
- Procedure: Human tyrosyl-DNA phosphodiesterase 1 (TDP1) is a novel repair gene, and we propose to use it as a new target for anticancer drug development. […] For the primary screen, Tdp1-/-;hTDP1 cells will be exposed to small molecules in the presence or absence of CPT, and their growth kinetics will be evaluated after 48 hours by measuring ATP activity. […] The hit compounds will then be evaluated in the presence or absence of CPT using Tdp1-/- cells. […]
The campaign covered roughly 420,000 compounds. About 50,000 (12%) were called active. Another 26% or so got no clear call; they are omitted. The call rests on the fitted dose curve; in most records, active means well fitted inhibition curve with a large enough effect; inconclusive means small, poorly fitted or top-dose-only effect; inactive means flat fitted curve, though single readings scatter. The entries come from a sample that favours actives as a whole.
Classes used: Yes for active, No for inactive

INSERT INTO results (compound, label) VALUES
  ('CSCCC(NC(=O)c1ccco1)C(=O)NCCc1ccc(F)cc1 (stereo unspecified)', 'No'),
  ('C=CCn1c(=S)[nH]c2nc3c(cc2c1=O)COC(C)(C)C3', 'No'),
  ('Cc1ccc(S(=O)(=O)N2CCC(=O)N([C@H](COCc3ccccc3)C(C)C)CC2)cc1', 'No'),
  ('CC(C)C[C@@H](CO)N1CCN(Cc2ccc(O)cc2)CCC1=O', 'No'),
  ('Cn1nccc1C(=O)NC1CCCc2c1cnn2-c1ccc(F)cc1F (stereo unspecified)', 'Yes'),
  ('CC1(C)Cc2nc3sc4c(SCC(=O)NC(c5ccccc5)c5ccccc5)ncnc4c3cc2CO1', 'Yes'),
  ('Cc1nnsc1C(=O)N/N=C/c1ccccc1Cl', 'No'),
  ('O=C(NCCN1CCCC(O)C1)c1cc(COc2c(F)cccc2F)on1 (stereo unspecified)', 'No'),
  ('N#CCSc1nc2c(c(=O)n1Cc1ccccc1)C1(CCCC1)Cc1ccccc1-2', 'Yes'),
  ('CCOc1ccc(NC(=O)CSc2ncnc3c2sc2ccccc23)cc1', 'No'),
  ('O=C(Cc1ccccc1)N/N=C/c1ccc(Cl)cc1Cl', 'No');
